target: BaIMPDHΔL; type: biochemical, Bacillus anthracis; conditions: read-out: k−7/k7, equilibrium dissociation constant of NAD+ substrate inhibition

[
  {
    "molecule": "NC(=O)c1ccc[n+]([C@@H]2O[C@H](COP(=O)([O-])OP(=O)(O)OC[C@H]3O[C@@H](n4cnc5c(N)ncnc54)[C@H](O)[C@@H]3O)[C@@H](O)[C@H]2O)c1 [NAD^+]",
    "unitLabel": "mM",
    "Kd": 5.5
  }
]
